Items are presented alongside their recorded relative fluorescent units (RFU), ELISA.
Molecular target: T1, extracellular domain (ECD) of murine IGSF11, biotinylated (mouse, UniProt P0C673 23-240, biotinylated (site not stated))
T1 construct: also called Mouse IGSF11; murine IGSF11 protein
T1 sequence: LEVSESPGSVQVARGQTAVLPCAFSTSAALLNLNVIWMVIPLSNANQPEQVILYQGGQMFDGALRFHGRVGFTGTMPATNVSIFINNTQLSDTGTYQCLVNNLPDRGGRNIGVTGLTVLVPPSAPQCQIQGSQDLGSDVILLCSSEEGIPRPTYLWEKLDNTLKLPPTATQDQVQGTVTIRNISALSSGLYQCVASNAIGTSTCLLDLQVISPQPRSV
Assay: ELISA, scFv; RFU grade (*** >1.0, ** 0.5-1.0, * 0.1-0.5)

Incoming: Answer with reported relative fluorescent units (RFU), ELISA of A-025 (scFv format) (scFv, V domains shown, scFv) VH: QVQLVQSGAEVKKPGSSVKVSCKASGGTFSSYAISWVRQAPGQGLEWMGGIIPIFGTANYAQKFQGRVTITADESTSTAYMELTSLRSEDTAVYYCARGGWLRQNWFDPWGQGTLVTVSS VL: SSELTQDPAVSVALGQTVRITCQGDSLRSYYASWYQQKPGQAPVLVIYGKNNRPSGIPDRFSGSSSGNTASLTITGAQAEDEADYYCNSRDSSGNHPRVFGGGTKLTVL
Outgoing: 0.1 to 0.5 rfu

Incoming: Answer with reported relative fluorescent units (RFU), ELISA of A-012 (scFv format) (scFv, V domains shown, scFv) VH: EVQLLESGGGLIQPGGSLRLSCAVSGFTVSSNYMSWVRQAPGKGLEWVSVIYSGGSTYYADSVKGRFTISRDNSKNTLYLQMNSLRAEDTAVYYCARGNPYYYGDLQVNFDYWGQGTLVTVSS VL: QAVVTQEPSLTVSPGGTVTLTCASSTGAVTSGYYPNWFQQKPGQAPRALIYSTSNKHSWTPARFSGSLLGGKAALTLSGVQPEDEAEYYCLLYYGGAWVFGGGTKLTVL
Outgoing: 0.5 to 1 rfu
